Measured inhibition, listed per entry for reference.
Target: Androgen receptor (Homo sapiens)
Sequence (whole entry): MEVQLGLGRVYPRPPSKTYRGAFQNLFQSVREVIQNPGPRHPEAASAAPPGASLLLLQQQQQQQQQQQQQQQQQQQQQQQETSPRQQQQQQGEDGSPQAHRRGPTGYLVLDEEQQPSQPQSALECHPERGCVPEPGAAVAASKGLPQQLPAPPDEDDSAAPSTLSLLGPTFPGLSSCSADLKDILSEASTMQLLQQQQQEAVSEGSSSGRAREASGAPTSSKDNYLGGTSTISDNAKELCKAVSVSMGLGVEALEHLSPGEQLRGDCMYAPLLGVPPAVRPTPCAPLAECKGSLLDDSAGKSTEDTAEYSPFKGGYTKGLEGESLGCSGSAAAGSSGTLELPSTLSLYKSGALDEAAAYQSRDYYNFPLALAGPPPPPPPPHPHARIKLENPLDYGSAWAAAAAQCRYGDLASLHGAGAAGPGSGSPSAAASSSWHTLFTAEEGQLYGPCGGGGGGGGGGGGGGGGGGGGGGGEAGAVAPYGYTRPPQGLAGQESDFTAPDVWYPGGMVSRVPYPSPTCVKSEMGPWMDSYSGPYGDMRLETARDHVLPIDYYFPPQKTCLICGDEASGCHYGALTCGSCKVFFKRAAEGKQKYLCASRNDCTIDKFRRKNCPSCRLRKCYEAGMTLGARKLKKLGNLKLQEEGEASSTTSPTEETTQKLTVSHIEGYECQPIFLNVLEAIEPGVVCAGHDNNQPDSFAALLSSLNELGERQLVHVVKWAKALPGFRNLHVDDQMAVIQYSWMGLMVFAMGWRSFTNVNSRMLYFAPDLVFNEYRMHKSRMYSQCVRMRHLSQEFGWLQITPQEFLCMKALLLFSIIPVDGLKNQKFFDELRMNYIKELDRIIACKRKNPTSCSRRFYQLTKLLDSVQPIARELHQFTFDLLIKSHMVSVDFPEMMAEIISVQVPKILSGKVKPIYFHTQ
Conditions: at 10 µM
Description: Antagonist activity at alpha1 androgen receptor (unknown origin) assessed as reduction in R1881-induced response at 10 uM by dual-luciferase reporter gene assay relative to control

Clc1ccc(OCCc2ccc(CN3CCN(c4ccccc4)CC3)cc2)cc1Cl :: 41.1%
N#Cc1ccccc1OCCc1ccc(CN2CCN(c3ccccc3)CC2)cc1 :: 32.1%
c1ccc(N2CCN(Cc3ccc(CCOc4cccc5ccccc45)cc3)CC2)cc1 :: 32.5%
CC(C)c1ccc(OCCc2ccc(CN3CCN(c4ccccc4)CC3)cc2)cc1 :: 40.2%
N#Cc1ccc(OCCc2ccc(CN3CCN(c4ccccc4)CC3)cc2)cc1 :: 47.2%
Clc1ccc(OCCc2ccc(CN3CCN(c4ccccc4)CC3)cc2)cc1 :: 32.4%
Cc1cc(C)cc(OCCc2ccc(CN3CCN(c4ccccc4)CC3)cc2)c1 :: 16.7%
O=[N+]([O-])c1ccc(OCCc2ccc(CN3CCN(c4ccccc4)CC3)cc2)cc1 :: 50.1%

We now examine a further compound.
Need inhibition, item FC(F)(F)c1ccc(OCCc2ccc(CN3CCN(c4ccccc4)CC3)cc2)cc1
48.2%

* * *

Target: UniProt:P15207
Sequence (P15207 whole entry S389L, the tested form may be a part): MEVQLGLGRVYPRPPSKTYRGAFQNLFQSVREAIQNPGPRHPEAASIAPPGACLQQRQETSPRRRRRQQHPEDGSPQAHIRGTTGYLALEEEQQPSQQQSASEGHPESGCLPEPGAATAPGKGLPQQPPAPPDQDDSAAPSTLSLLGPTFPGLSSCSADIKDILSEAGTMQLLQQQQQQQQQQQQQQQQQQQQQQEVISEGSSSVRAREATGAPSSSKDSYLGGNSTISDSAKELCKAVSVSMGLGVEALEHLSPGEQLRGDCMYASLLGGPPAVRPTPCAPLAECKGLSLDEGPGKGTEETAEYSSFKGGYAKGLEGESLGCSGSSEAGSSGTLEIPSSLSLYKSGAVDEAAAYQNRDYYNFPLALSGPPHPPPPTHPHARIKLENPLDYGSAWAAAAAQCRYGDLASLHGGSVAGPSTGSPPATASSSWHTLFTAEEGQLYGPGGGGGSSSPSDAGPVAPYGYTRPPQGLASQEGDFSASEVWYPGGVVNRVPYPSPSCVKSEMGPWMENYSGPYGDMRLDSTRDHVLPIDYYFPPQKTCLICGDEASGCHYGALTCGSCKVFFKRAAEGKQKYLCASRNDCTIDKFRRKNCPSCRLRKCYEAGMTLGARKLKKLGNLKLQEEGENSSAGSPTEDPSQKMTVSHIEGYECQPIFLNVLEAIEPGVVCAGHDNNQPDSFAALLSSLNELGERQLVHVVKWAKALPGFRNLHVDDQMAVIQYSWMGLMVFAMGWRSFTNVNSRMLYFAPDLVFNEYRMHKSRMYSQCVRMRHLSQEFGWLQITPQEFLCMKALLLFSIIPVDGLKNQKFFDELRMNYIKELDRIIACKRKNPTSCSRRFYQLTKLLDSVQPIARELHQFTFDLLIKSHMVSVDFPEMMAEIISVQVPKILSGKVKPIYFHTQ
Test: Displacement of fluormone-AL Green from His-tagged/GST-fused recombinant rat androgen receptor LBD expressed in insect cells measured after 4 hrs by fluorescence polarization assay
recorded.metric: pIC50
pIC50 here: minus log base 10 of the concentration, concentration in moles per litre.

Take a look at these entries with their results.
O=[N+]([O-])c1ccc(OCCc2ccc(CN3CCN(c4ccccc4)CC3)cc2)cc1 :: 5.42
COc1ccc(OCCc2ccc(CN3CCN(c4ccccc4)CC3)cc2)cc1 :: 5.94
FC(F)(F)c1ccc(OCCc2ccc(CN3CCN(c4ccccc4)CC3)cc2)cc1 :: 5.39
N#Cc1ccc(OCCc2ccc(CN3CCN(c4ccccc4)CC3)cc2)cc1 :: 5.37

We now examine a further compound.
# query: pIC50 | item Cc1ccc(OCCc2ccc(CN3CCN(c4ccccc4)CC3)cc2)cc1 | system: UniProt:P15207
5.44

* * *

Measured pIC50, listed per entry for reference.
Test system: PC-3
Assay: Antiproliferative activity against human PC3 cells after 24 hrs by CCK-8 assay
Type: functional, cell-based
Settings: PC-3, 24 h
pIC50 here: minus log base 10 of the concentration, concentration in moles per litre.

CC(C)(C)c1ccc(OCCc2ccc(CN3CCN(c4ccccc4)CC3)cc2)cc1 :: 5.31
c1ccc(N2CCN(Cc3ccc(CCOc4cccc5ccccc45)cc3)CC2)cc1 :: 5.33
Brc1ccc(OCCc2ccc(CN3CCN(c4ccccc4)CC3)cc2)cc1 :: 5.17
O=[N+]([O-])c1ccc(OCCc2ccc(CN3CCN(c4ccccc4)CC3)cc2)cc1 :: 5.03
Cc1cc(C)cc(OCCc2ccc(CN3CCN(c4ccccc4)CC3)cc2)c1 :: 5.52
COc1ccc(OCCc2ccc(CN3CCN(c4ccccc4)CC3)cc2)cc1 :: 5.05

Need pIC50, item Clc1ccc(OCCc2ccc(CN3CCN(c4ccccc4)CC3)cc2)cc1Cl
4.64

Ref: ChEMBL document CHEMBL4308898
